Recorded kon for the following binders
test.target: T1, TNFR2-His (Sino Biological, 10417-H08H, NP_001057.1 Met1-Asp257, with multi-histidine tag expressed on … (human, UniProt P20333 23-257))
T1 construct: range 1-257; Bought protein; also called recombinant human TNFR2 protein; TNFR2-His antigen; not shown: C-terminal multi-histidine tag
T1 sequence (looked up): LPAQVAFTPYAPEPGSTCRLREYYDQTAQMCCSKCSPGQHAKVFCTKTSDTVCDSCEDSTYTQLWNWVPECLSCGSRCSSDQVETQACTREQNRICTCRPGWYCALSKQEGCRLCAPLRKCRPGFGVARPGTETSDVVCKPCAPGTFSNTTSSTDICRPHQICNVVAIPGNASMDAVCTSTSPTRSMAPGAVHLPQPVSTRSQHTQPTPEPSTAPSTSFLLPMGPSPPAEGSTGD
protocol.notes: BLI, antibody captured on AHC probe, TNFR2-His in solution
// return numeric value only (unit: M⁻¹ s⁻¹, not printed)

Reference set, count: 2
binder="33C12huVH3 + huVL2(P07302) (antibody, V domains shown, Humanized 33C12) VH: EVQLVESGGGLVKPGGSLRLSCAASGFTFSDYTMSWVRQAPGKGLEWVATISTGGSYTYYADSVKGRFTISRDNAKNSLYLQMNSLRAEDTAVYYCARDGGYDGDYFDYWGQGTTVTVSS VL: ENVLTQSPATLSLSPGERATLSCRASSSVSSSYLHWYQQKPGQAPRLWIYRTSNLASGVPARFSGSGSGTDFTLTISRLEPEDFAVYYCQQYSGYPLTFGGGTKLEIK" recorded_result=158000
binder="33C12huVH2 + huVL3(P07303) (antibody, V domains shown, Humanized 33C12) VH: EVQLVESGGGLVKPGGSLRLSCAASGFTFSDYTMSWVRQAPGKGLEWVATISTGGSYTYYPDSVKGRFTISRDNAKNTLYLQMSSLRAEDTAVYYCARDGGYDGDYFDYWGQGTTVTVSS VL: EIVLTQSPATLSLSPGERATLSCRASSSVSSSYLHWYQQKPGQAPRLLIYRTSNLATGIPDRFSGSGSGTDFTLTISRLEPEDFAVYYCQQYSGYPLTFGGGTKLEIK" recorded_result=102000

Field request: kon | item: 33C12huVH2 + huVL2(P07301) (antibody, V domains shown, Humanized 33C12) VH: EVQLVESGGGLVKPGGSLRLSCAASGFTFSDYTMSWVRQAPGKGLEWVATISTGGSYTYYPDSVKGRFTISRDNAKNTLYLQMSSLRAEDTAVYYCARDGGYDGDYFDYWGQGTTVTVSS VL: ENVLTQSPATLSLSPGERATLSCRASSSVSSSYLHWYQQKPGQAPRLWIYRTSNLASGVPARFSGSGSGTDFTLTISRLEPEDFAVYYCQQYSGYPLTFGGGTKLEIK
157000
